Biological target: pooled human IgG (human IgG1,2,3 and 4)
quantity_measured: Enzyme activity endpoint: scIgG (ng/µL)
Enter your answer as a number in ng/µL; do not include the unit.

Give the value of Enzyme activity endpoint: scIgG reported for the following: PRT-683 (protein) MQITSVWTKGVTPLTPEQFRYNNEDVIHAPYLAHQGWYDITKAFNGKDNLLCGAATAGNMLHWWFDQNKEEIEAYLKKHPEKQKIIFNNQELFDLRKAINTKDSQTNSQLFNYFRDKAFPNLSARQLGVMPDLVLDMFINGYYLNVFKTQSTDVNRPYQDKDKRGGIFDHVFTRGDQTTLLTARHDLKNKTLNDISQIIKQELQEGKALALSHTYANVSISHVINLWGADFNAEGNLEAIYVTDSDANASIGMKKYFVGKNAHGHVAISAKKIEGENIGAQVLGLFTLSSGKEIWQKLSLEHHHHHH
0
